# SYSTEM NAME: T1, recombinant human IL-27 (human, UniProt Q14213 21-229; Q8NEV9 29-243)
# T1 construct: Bought from R&D Systems (Cat. 2526-IL); also called hIL-27; rhIL-27
# T1 sequence 1: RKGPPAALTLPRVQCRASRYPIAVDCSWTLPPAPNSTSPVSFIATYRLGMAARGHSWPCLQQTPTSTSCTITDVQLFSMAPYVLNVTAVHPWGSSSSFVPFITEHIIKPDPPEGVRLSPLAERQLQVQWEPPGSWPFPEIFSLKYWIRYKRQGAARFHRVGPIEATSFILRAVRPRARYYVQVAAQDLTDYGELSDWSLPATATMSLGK
# T1 sequence 2: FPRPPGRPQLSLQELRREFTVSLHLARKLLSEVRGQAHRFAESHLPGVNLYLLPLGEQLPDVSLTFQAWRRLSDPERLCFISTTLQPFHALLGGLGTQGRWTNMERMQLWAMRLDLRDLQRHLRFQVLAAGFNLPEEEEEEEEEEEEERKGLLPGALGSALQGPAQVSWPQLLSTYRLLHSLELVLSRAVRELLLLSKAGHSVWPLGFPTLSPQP
# MEASUREMENT DESCRIPTION: SPR, hIL-27 on CM5 chip, bivalent analyte model

{"BINDER": "Ab7.13 (antibody, human IgG1, kappa, V domains shown, human IgG1/kappa) VH: EVKLVESGGGLVQPGGSLRLSCAASGFTFTSYSMSWVRQAPGKGLEWVAYISYDGGSAYYPDTVKGRFTISRDNSKKTLYLQMNSLRAEDTAVYYCARHGDYDDDDAMDYWGQGTLVTVSS VL: DIQMTQSPSSLSASVGDRVTITCRASENIYSYLAWYQQKPGKAPKLLVYNAETLTEGVPSRFSGSGSGTDFTLTISSLQPEDFANYYCQHHYGTPLTFGQGTKLEIKR", "UNIT INFO": "s⁻¹", "kd2": 0.053}
{"BINDER": "Ab7.12 (antibody, human IgG1, kappa, V domains shown, human IgG1/kappa) VH: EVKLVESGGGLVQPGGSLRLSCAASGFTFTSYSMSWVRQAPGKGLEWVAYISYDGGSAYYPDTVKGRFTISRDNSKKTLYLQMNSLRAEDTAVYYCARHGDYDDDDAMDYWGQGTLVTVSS VL: DIQMTQSPSSLSASVGDRVTITCRASENIYSYLAWYQQKQGKAPKLLVYNAETLTEGVPSRFSGSGSGTDFTLTISSLQPEDFANYYCQHHYGTPLTFGQGTKLDIKR", "UNIT INFO": "s⁻¹", "kd2": 0.29}
{"BINDER": "Ab7.17 (antibody, human IgG1, kappa, V domains shown, human IgG1/kappa) VH: EVQLVESGGGLVQPGGSLRLSCAASGFTFTSYSMSWVRQAPGKGLEWVAYISYDGGSAYYPDTVKGRFTISRDNSKNTLYLQMNSLRAEDTAVYYCARHGDYDDDDAMDYWGQGTLVTVSS VL: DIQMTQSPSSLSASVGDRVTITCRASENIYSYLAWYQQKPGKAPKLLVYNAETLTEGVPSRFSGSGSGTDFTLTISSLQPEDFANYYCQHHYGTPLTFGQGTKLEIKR", "UNIT INFO": "s⁻¹", "kd2": 0.09}
{"BINDER": "Ab7.8 (antibody, human IgG1, kappa, V domains shown, human IgG1/kappa) VH: EVQLVESGGGLVQPGGSLRLSCAASGFTFTSYSMSWVRQAPGKGLEWVAYISYDGGSAYYPDTVKGRFTISRDNSKNTLYLQMSSLKSEDTAMYYCARHGDYDDDDAMDYWGQGTLVTVSS VL: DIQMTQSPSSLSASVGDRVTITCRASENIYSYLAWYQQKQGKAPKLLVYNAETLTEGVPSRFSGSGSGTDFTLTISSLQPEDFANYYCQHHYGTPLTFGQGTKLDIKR", "UNIT INFO": "s⁻¹", "kd2": 0.15}

Numbers sourced from patent US20190382474A1.
